Data credit: the supplement of paper PMC11061612

Test system: IM-9 (Non-Cancerous)
Test: Bliss excess, mean over the matrix (fraction); higher = more synergy
Label y for high-side Bliss excess (at or above 0.04) and n for low-side Bliss excess (below it).

Past entries and their recorded results:
{"MOLECULE": "CN(C)CCCOc1ccc(-c2ccc3ncc4c(c3c2)n(C2CCOCC2)c(=O)n4C)cn1 [AZD0156] + C[C@@H]1COCCN1C2=NC(=NC(=C2)C3(CC3)[S@](=N)(=O)C)C4=C5C=CNC5=NC=C4 [AZD6738] (first compound max 1 µM, 7x7, partner max 10 µM)", "TARGET_OF_ASSAY": "IM-9 (Non-Cancerous)", "CATEGORY": "y"}
{"MOLECULE": "O=C(c1cc(Cc2n[nH]c(=O)c3ccccc23)ccc1F)N1CCN(C(=O)C2CC2)CC1 [Olaparib] + Cc1c2c(nn1C)CSCc1cc(n(C)n1)CSc1cc(c3ccccc3c1)OCCCc1c(C(=O)O)n(C)c3c-2c(Cl)ccc13 [AZD5991] (first compound max 10 µM, 7x7, partner max 1 µM)", "TARGET_OF_ASSAY": "IM-9 (Non-Cancerous)", "CATEGORY": "y"}
{"MOLECULE": "CC1(C)CCC(CN2CCN(c3ccc(C(=O)NS(=O)(=O)c4ccc(NCC5CCOCC5)c([N+](=O)[O-])c4)c(Oc4cnc5[nH]ccc5c4)c3)CC2)=C(c2ccc(Cl)cc2)C1 [Venetoclax] + C[C@@H]1COCCN1C2=NC(=NC(=C2)C3(CC3)[S@](=N)(=O)C)C4=C5C=CNC5=NC=C4 [AZD6738] (first compound max 1 µM, 7x7, partner max 10 µM)", "TARGET_OF_ASSAY": "IM-9 (Non-Cancerous)", "CATEGORY": "n"}
{"MOLECULE": "O=C(c1cc(Cc2n[nH]c(=O)c3ccccc23)ccc1F)N1CCN(C(=O)C2CC2)CC1 [Olaparib] + COc1nnc2ccc(N3CCC(c4ccc(OCCN5CCN(C)C(=O)[C@H]5C)cc4)CC3)nn12 [AZD5153] (first compound max 10 µM, 7x7, partner max 1 µM)", "TARGET_OF_ASSAY": "IM-9 (Non-Cancerous)", "CATEGORY": "n"}
{"MOLECULE": "CN(CCO)CC[C@H](CSc1ccccc1)Nc1ccc(S(=O)(=O)NC(=O)c2ccc(N3CCC([C@@H](O)c4ccccc4-c4ccc(Cl)cc4)CC3)cc2)cc1S(=O)(=O)C(F)(F)F [AZD4320] + Nc1ccn([C@@H]2O[C@H](CO)[C@@H](O)C2(F)F)c(=O)n1 [Gemcitabine] (first compound max 1 µM, 7x7, partner max 0.3 µM)", "TARGET_OF_ASSAY": "IM-9 (Non-Cancerous)", "CATEGORY": "y"}
{"MOLECULE": "Cc1nc(-c2cn3c(n2)-c2ccc(-c4cnn(C(C)(C)C(N)=O)c4)cc2OCC3)n(C(C)C)n1 [Taselisib] + O=C(Nc1ccc2[nH]nc(-c3ccncc3)c2c1)[C@@H]1CCN(CC(=O)N2CCN(c3ccc(-c4ncccn4)cc3)CC2)C1 [SCH772984] (first compound max 10 µM, 7x7, partner max 5 µM)", "TARGET_OF_ASSAY": "IM-9 (Non-Cancerous)", "CATEGORY": "n"}

Shifting focus to the molecule that follows.
Task item: Answer whether Bliss excess of COc1nnc2ccc(N3CCC(c4ccc(OCCN5CCN(C)C(=O)[C@H]5C)cc4)CC3)nn12 [AZD5153] + C[C@@H]1COCCN1C2=NC(=NC(=C2)C3(CC3)[S@](=N)(=O)C)C4=C5C=CNC5=NC=C4 [AZD6738] (first compound max 1 µM, 7x7, partner max 10 µM) is greater than or equal to 0.04.
Reply: n

====

combination Emax values, listed per item
System: CESS (Acute Myeloid Leukemia)
Assay: combination Emax (second highest fraction inhibited in the dose matrix, 72 h); higher = more inhibition; extreme values may be limits of the assay
Just the number, please, no unit after it.

{"COMPOUND": "COc1cccc(OCCCN)c1-c1cc(Nc2cnc(C#N)cn2)n[nH]1 [Prexasertib] + O=C(c1cc(Cc2n[nH]c(=O)c3ccccc23)ccc1F)N1CCN(C(=O)C2CC2)CC1 [Olaparib] (first compound max 1 µM, 7x7, partner max 10 µM)", "METRIC_NAME": "combination Emax", "ASSAY_VALUE": 0.972}
{"COMPOUND": "CC1(C)CCC(CN2CCN(c3ccc(C(=O)NS(=O)(=O)c4ccc(NCC5CCOCC5)c([N+](=O)[O-])c4)c(Oc4cnc5[nH]ccc5c4)c3)CC2)=C(c2ccc(Cl)cc2)C1 [Venetoclax] + C[C@@H]1COCCN1C2=NC(=NC(=C2)C3(CC3)[S@](=N)(=O)C)C4=C5C=CNC5=NC=C4 [AZD6738] (first compound max 1 µM, 7x7, partner max 10 µM)", "METRIC_NAME": "combination Emax", "ASSAY_VALUE": 0.929}

Task item: Name the reported combination Emax value associated with the compound CC1(C)CCC(CN2CCN(c3ccc(C(=O)NS(=O)(=O)c4ccc(NCC5CCOCC5)c([N+](=O)[O-])c4)c(Oc4cnc5[nH]ccc5c4)c3)CC2)=C(c2ccc(Cl)cc2)C1 [Venetoclax] + COc1cc(Nc2ncc3c(n2)-c2ccc(Cl)cc2C(c2c(F)cccc2OC)=NC3)ccc1C(=O)O [Alisertib] (first compound max 1 µM, 7x7, partner max 10 µM)
Reply: 0.89

====

Let's look at some compounds and their measured Bliss excess.
Test system: SW620 (Colorectal Carcinoma)
Assay: Bliss excess, mean over the matrix (fraction); higher = more synergy
Lab note: jot down the number only; don't add units.

{"COMPOUND": "C=CCn1c(=O)c2cnc(Nc3ccc(N4CCN(C)CC4)cc3)nc2n1-c1cccc(C(C)(C)O)n1 [AZD1775] + CCc1c2c(nc3ccc(O)cc13)-c1cc3c(c(=O)n1C2)COC(=O)[C@]3(O)CC [SN-38] (first compound max 1 µM, partner max 0.3 µM)", "Bliss excess": -0.0563}
{"COMPOUND": "COc1cccc(OCCCN)c1-c1cc(Nc2cnc(C#N)cn2)n[nH]1 [Prexasertib] + C[C@@H]1COCCN1C2=NC(=NC(=C2)C3(CC3)[S@](=N)(=O)C)C4=C5C=CNC5=NC=C4 [AZD6738] (first compound max 1 µM, 7x7, partner max 10 µM)", "Bliss excess": 0.013}
{"COMPOUND": "CN(CCO)CC[C@H](CSc1ccccc1)Nc1ccc(S(=O)(=O)NC(=O)c2ccc(N3CCC([C@@H](O)c4ccccc4-c4ccc(Cl)cc4)CC3)cc2)cc1S(=O)(=O)C(F)(F)F [AZD4320] + CS(=O)(=O)CCNCc1ccc(-c2ccc3ncnc(Nc4ccc(OCc5cccc(F)c5)c(Cl)c4)c3c2)o1 [Lapatinib] (first compound max 1 µM, 7x7, partner max 10 µM)", "Bliss excess": -0.0116}
{"COMPOUND": "O=C(c1cc(Cc2n[nH]c(=O)c3ccccc23)ccc1F)N1CCN(C(=O)C2CC2)CC1 [Olaparib] + Cc1c2c(nn1C)CSCc1cc(n(C)n1)CSc1cc(c3ccccc3c1)OCCCc1c(C(=O)O)n(C)c3c-2c(Cl)ccc13 [AZD5991] (first compound max 10 µM, 7x7, partner max 1 µM)", "Bliss excess": -0.0572}
{"COMPOUND": "C[C@@H]1COCCN1c1cc(C2([S@](C)(=N)=O)CC2)nc(-c2ccnc3[nH]ccc23)n1 [AZD6738] + C1CC(C1)(C(=O)[O-])C(=O)[O-].N.N.[Pt+2] [Carboplatin] (first compound max 10 µM, 7x7, partner max 10 µM)", "Bliss excess": -0.0461}

Task item: Item CN(CCO)CC[C@H](CSc1ccccc1)Nc1ccc(S(=O)(=O)NC(=O)c2ccc(N3CCC([C@@H](O)c4ccccc4-c4ccc(Cl)cc4)CC3)cc2)cc1S(=O)(=O)C(F)(F)F [AZD4320] + C[C@@H]1COCCN1C2=NC(=NC(=C2)C3(CC3)[S@](=N)(=O)C)C4=C5C=CNC5=NC=C4 [AZD6738] (first compound max 1 µM, 7x7, partner max 10 µM) has what recorded Bliss excess?
Reply: -0.0151

Task item: Data request, read-out Bliss excess, for C[C@@H](Nc1cc(F)cc(F)c1)c1cc(C(=O)N(C)C)cc2c(=O)cc(N3CCOCC3)oc12 [AZD8186] + C1CN(CCC1(C(=O)N[C@@H](CCO)C2=CC=C(C=C2)Cl)N)C3=NC=NC4=C3C=CN4 [AZD5363] (first compound max 10 µM, 7x7, partner max 10 µM)
Reply: -0.0135

====

Tested on: KYSE-140 (Esophageal Squamous Cell Carcinoma)
Assay: Bliss excess, mean over the matrix (fraction); higher = more synergy
METRIC_NAME: Bliss excess
The response must contain the number and no unit.

Use these answered entries as a reference point.
{"COMPOUND": "CN(CCO)CC[C@H](CSc1ccccc1)Nc1ccc(S(=O)(=O)NC(=O)c2ccc(N3CCC([C@@H](O)c4ccccc4-c4ccc(Cl)cc4)CC3)cc2)cc1S(=O)(=O)C(F)(F)F [AZD4320] + C[C@@H](Nc1cc(F)cc(F)c1)c1cc(C(=O)N(C)C)cc2c(=O)cc(N3CCOCC3)oc12 [AZD8186] (first compound max 1 µM, 7x7, partner max 3 µM)", "TARGET_OF_ASSAY": "KYSE-140 (Esophageal Squamous Cell Carcinoma)", "Bliss excess": -0.0136}
{"COMPOUND": "Cc1c2c(nn1C)CSCc1cc(n(C)n1)CSc1cc(c3ccccc3c1)OCCCc1c(C(=O)O)n(C)c3c-2c(Cl)ccc13 [AZD5991] + CCN(CCO)CCCOc1ccc2c(Nc3cc(CC(=O)Nc4cccc(F)c4)[nH]n3)ncnc2c1 [AZD2811] (first compound max 1 µM, 7x7, partner max 1 µM)", "TARGET_OF_ASSAY": "KYSE-140 (Esophageal Squamous Cell Carcinoma)", "Bliss excess": 0.0169}
{"COMPOUND": "CN(CCO)CC[C@H](CSc1ccccc1)Nc1ccc(S(=O)(=O)NC(=O)c2ccc(N3CCC([C@@H](O)c4ccccc4-c4ccc(Cl)cc4)CC3)cc2)cc1S(=O)(=O)C(F)(F)F [AZD4320] + C=CCn1c(=O)c2cnc(Nc3ccc(N4CCN(C)CC4)cc3)nc2n1-c1cccc(C(C)(C)O)n1 [AZD1775] (first compound max 1 µM, partner max 1 µM)", "TARGET_OF_ASSAY": "KYSE-140 (Esophageal Squamous Cell Carcinoma)", "Bliss excess": -0.0161}

Task item: # get_value(readout='Bliss excess', item= CC1(C)CCC(CN2CCN(c3ccc(C(=O)NS(=O)(=O)c4ccc(NCC5CCOCC5)c([N+](=O)[O-])c4)c(Oc4cnc5[nH]ccc5c4)c3)CC2)=C(c2ccc(Cl)cc2)C1 [Venetoclax] + C[C@@H]1COCCN1C2=NC(=NC(=C2)C3(CC3)[S@](=N)(=O)C)C4=C5C=CNC5=NC=C4 [AZD6738] (first compound max 1 µM, 7x7, partner max 10 µM) )
Reply: -0.0185
